system name: Glutamate receptor ionotropic, AMPA (Rattus norvegicus, UniProt P19490+P19491+P19492+P19493)
measurement protocol: Tested for in vitro binding affinity against AMPA receptor using [3H]-AMPA binding assay
pIC50: −log10 of the molar value.
observation type: pIC50

1. O=[N+]([O-])c1cc(CNc2ccccn2)c2nc(O)c(O)nc2c1 : 6.30
2. O=[N+]([O-])c1cc(CNc2cccc(F)c2)c2nc(O)c(O)nc2c1 : 5.85
3. NC(=O)[C@@H]1CCCC[C@@H]1NCc1cc([N+](=O)[O-])cc2nc(O)c(O)nc12 : 6.19
4. O=[N+]([O-])c1cc(CNc2nccs2)c2nc(O)c(O)nc2c1 : 6.72
5. O=[N+]([O-])c1cc(CNc2cccnc2)c2nc(O)c(O)nc2c1 : 6.01

###

system name: Glutamate NMDA receptor
measurement protocol: Inhibition of [3H]MDL-105,519 binding to NMDA receptor glycine-binding site
pIC50: −log10 of the molar value.
observation type: pIC50

1) O=C(O)Cc1csc(NCc2cc(Br)cc3nc(O)c(O)nc23)n1 : 6.92
2) O=C(O)c1ccccc1NCc1cc(Cl)cc2nc(O)c(O)nc12 : 7.52
3) O=C(O)c1ccccc1NCc1cc([N+](=O)[O-])cc2nc(O)c(O)nc12 : 7.30
4) O=[N+]([O-])c1cc(CNc2cccc(F)c2)c2nc(O)c(O)nc2c1 : 6.14
5) CCOC(=O)Cc1csc(NCc2cc([N+](=O)[O-])cc3nc(O)c(O)nc23)n1 : 6.39
6) O=[N+]([O-])c1cc(CNc2ccc(F)cc2)c2nc(O)c(O)nc2c1 : 6.12
7) CCOC(=O)Cc1csc(NCc2cc(Br)cc3nc(O)c(O)nc23)n1 : 6.47
8) O=C(O)Cc1csc(NCc2cc([N+](=O)[O-])cc3nc(O)c(O)nc23)n1 : 6.92
9) O=[N+]([O-])c1cc(CNc2ccccc2)c2nc(O)c(O)nc2c1 : 5.85
10) O=[N+]([O-])c1cc(CNc2ccccc2F)c2nc(O)c(O)nc2c1 : 6.30

###

system name: Glutamate receptor ionotropic, AMPA (Rattus norvegicus, UniProt P19490+P19491+P19492+P19493)
measurement protocol: Tested for in vitro binding affinity against AMPA receptor using [3H]-AMPA binding assay
Mark yes (1) only when IC50 stays strictly below 2000 nM. Values equal to the cut-off are no (0).

1. O=C(O)[C@@H]1CCCC[C@@H]1NCc1cc([N+](=O)[O-])cc2nc(O)c(O)nc12 : yes (1)
2. O=[N+]([O-])c1cc(CNc2ccccc2)c2nc(O)c(O)nc2c1 : yes (1)
3. O=[N+]([O-])c1cc(CNCc2ccccn2)c2nc(O)c(O)nc2c1 : no (0)
4. O=C(O)Cc1csc(NCc2cc([N+](=O)[O-])cc3nc(O)c(O)nc23)n1 : yes (1)
5. O=[N+]([O-])c1cc(CNc2ccc(F)cc2)c2nc(O)c(O)nc2c1 : yes (1)
6. Oc1nc2cc(Br)cc(CNCc3ccccn3)c2nc1O : no (0)
7. O=C(O)c1ccccc1NCc1cc([N+](=O)[O-])cc2nc(O)c(O)nc12 : yes (1)

###

system name: Glutamate receptor ionotropic, AMPA (Rattus norvegicus, UniProt P19490+P19491+P19492+P19493)
measurement protocol: Tested for in vitro binding affinity against AMPA receptor using [3H]-AMPA binding assay
observation type: IC50 (µM)

1) O=C(O)Cc1csc(NCc2cc(Br)cc3nc(O)c(O)nc23)n1 : 1.45
2) O=[N+]([O-])c1cc(CNCc2ccncc2)c2nc(O)c(O)nc2c1 : 1.4
3) O=C(O)c1cccc(NCc2cc([N+](=O)[O-])cc3nc(O)c(O)nc23)c1 : 0.9
4) COC(=O)C1CCCC(NCc2cc([N+](=O)[O-])cc3nc(O)c(O)nc23)C1 (stereo not given) : 1.3
5) CCOC(=O)Cc1csc(NCc2cc([N+](=O)[O-])cc3nc(O)c(O)nc23)n1 : 1.8
6) O=[N+]([O-])c1cc(CNc2cnccn2)c2nc(O)c(O)nc2c1 : 0.22
7) O=[N+]([O-])c1cc(CNc2ncccn2)c2nc(O)c(O)nc2c1 : 0.38
8) O=[N+]([O-])c1cc(CNc2ccccc2F)c2nc(O)c(O)nc2c1 : 1.4
9) O=C(O)C1CCCC(NCc2cc([N+](=O)[O-])cc3nc(O)c(O)nc23)C1 (stereo not given) : 0.78
10) O=C(O)c1ccc(NCc2cc([N+](=O)[O-])cc3nc(O)c(O)nc23)cc1 : 1.6

###

system name: Glutamate NMDA receptor (Rattus norvegicus) (UniProt P35439+Q00959+Q00960+Q00961+Q62645+Q8VHN2+Q9R1M7)
measurement protocol: Inhibition of [3H]MDL-105519 binding to NMDA receptor glycine binding site
Assay type: protein-complex assay
Set-up: concentration or dose not given beside the values
measurement setup: concentration not given here
Consider the following compounds and their measured inhibition readings.
observation type: inhibition (%)

1) Oc1nc2cc(Br)cc(CNCc3ccccn3)c2nc1O : 40
2) COC(=O)c1ccccc1NCc1cc(Cl)cc2nc(O)c(O)nc12 : 25
3) O=C(O)c1ccc(NCc2cc([N+](=O)[O-])cc3nc(O)c(O)nc23)cc1 : 10
4) O=[N+]([O-])c1cc(CNc2cnccn2)c2nc(O)c(O)nc2c1 : 59
5) O=[N+]([O-])c1cc(CNCc2ccncc2)c2nc(O)c(O)nc2c1 : 36
6) O=C(O)c1cccc(NCc2cc([N+](=O)[O-])cc3nc(O)c(O)nc23)c1 : 0
7) O=[N+]([O-])c1cc(CNCc2ccccn2)c2nc(O)c(O)nc2c1 : 40
8) O=[N+]([O-])c1cc(CNc2cccnc2)c2nc(O)c(O)nc2c1 : 12
9) NC(=O)[C@@H]1CCCC[C@@H]1NCc1cc([N+](=O)[O-])cc2nc(O)c(O)nc12 : 25
10) O=C(O)[C@@H]1CCCC[C@@H]1NCc1cc([N+](=O)[O-])cc2nc(O)c(O)nc12 : 25
11) O=C(O)C1CCCC(NCc2cc([N+](=O)[O-])cc3nc(O)c(O)nc23)C1 (stereo not given) : 21
12) O=[N+]([O-])c1cc(CNc2nccs2)c2nc(O)c(O)nc2c1 : 41
13) O=[N+]([O-])c1cc(CNc2ccccn2)c2nc(O)c(O)nc2c1 : 0
14) COC(=O)C1CCCC(NCc2cc([N+](=O)[O-])cc3nc(O)c(O)nc23)C1 (stereo not given) : 30
15) O=[N+]([O-])c1cc(CNc2ncccn2)c2nc(O)c(O)nc2c1 : 12
